As shown below, each of these compounds has a reported Ki value.
Biological target: purified recombinant human Aggrecanase-1 (rAgg1) (Homo sapiens, UniProt O75173)
Sequence (O75173 213-837): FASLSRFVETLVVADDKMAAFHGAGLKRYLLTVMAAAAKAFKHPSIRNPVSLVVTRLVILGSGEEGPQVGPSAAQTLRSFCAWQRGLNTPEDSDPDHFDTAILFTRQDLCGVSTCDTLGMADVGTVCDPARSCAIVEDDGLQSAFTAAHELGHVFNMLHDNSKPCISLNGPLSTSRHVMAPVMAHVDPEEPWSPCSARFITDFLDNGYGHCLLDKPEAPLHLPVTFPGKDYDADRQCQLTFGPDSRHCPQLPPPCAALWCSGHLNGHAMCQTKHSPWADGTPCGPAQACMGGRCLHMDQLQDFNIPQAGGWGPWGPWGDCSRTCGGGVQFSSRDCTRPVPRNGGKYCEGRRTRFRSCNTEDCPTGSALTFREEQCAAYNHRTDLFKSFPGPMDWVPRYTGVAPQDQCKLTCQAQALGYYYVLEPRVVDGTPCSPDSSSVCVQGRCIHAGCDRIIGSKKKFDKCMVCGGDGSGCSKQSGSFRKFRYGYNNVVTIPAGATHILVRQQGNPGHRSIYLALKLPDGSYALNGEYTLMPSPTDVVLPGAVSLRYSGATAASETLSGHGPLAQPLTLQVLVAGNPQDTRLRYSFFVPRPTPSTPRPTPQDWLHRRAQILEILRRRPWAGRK
Experiment: In vitro fluorescence screen for Aggrecanase-1 inhibitors
Assay type: biochemical
Conditions: Table 1; enzyme not given, column follows Agg1 IC50; read-out: Ki
Number only, in nM; omit the unit.

Completed entries (count: 4):
COc1ccc(CNC(=O)[C@H](CCC(=O)O)NC(=O)c2ccc(-c3ccccc3)cc2)cc1OC [Example 8F]; 12
CCCCCCNC(=O)[C@H](CCC(=O)O)NC(=O)c1ccc(-c2ccccc2)cc1 [Example 8VVV]; 38
O=C(O)CC[C@H](NC(=O)c1ccc2c(c1)Cc1ccccc1-2)C(=O)NCCCc1ccccc1 [Example 8IIII]; 9
CCCCCCNC(=O)[C@H](CCC(=O)O)NC(=O)c1ccc2c(c1)Cc1ccccc1-2 [Example 8OOOO]; 60

Task: # input compound: CCCCCCCNC(=O)[C@H](CCC(=O)O)NC(=O)c1ccc(-c2ccccc2)cc1 [Example 8JJJ] ; wanted: its Ki
Output: 54

Task: Same lookup for O=C(O)CC[C@H](NC(=O)c1ccc(-c2ccccc2)cc1)C(=O)NCCCCc1ccccc1 [Example 8II] , please.
Output: 39

Task: One more compound: CCC(C)NC(=O)[C@H](CCC(=O)O)NC(=O)c1ccc(-c2ccccc2)cc1 (stereo partly shown) [Example 8BBB]
Output: 130

----------
Target: purified recombinant human Aggrecanase-2 (Ag2t-Phe628-Strep) (Homo sapiens, UniProt Q9UNA0)
Construct: the form used is denoted as Ag2t-Phe628-Strep (MW=41,737)
Sequence (Q9UNA0 262-628): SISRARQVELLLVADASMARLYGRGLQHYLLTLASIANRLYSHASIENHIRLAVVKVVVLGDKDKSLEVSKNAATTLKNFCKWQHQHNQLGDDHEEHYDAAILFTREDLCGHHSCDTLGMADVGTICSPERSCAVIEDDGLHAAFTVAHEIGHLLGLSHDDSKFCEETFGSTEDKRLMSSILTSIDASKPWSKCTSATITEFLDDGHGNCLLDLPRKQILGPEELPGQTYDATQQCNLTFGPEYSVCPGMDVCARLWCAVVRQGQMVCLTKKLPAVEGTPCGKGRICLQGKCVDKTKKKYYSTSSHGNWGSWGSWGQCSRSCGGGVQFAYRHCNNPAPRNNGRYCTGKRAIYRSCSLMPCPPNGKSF
Test: In vitro fluorescence screen for Aggrecanase-2 inhibitors
Assay type: biochemical
Conditions: Table 2; read-out: Agg 2 IC50
RECORDED METRIC: pIC50
Recall that pIC50 is obtained by taking minus log10 of the concentration measured in molar.

As a guide, the following entries are already answered.
COc1ccc(-c2ccc(C(=O)N[C@@H](CCC(=O)O)C(=O)NCc3cc(OC)c(OC)c(OC)c3)cc2)cc1 [Example 17B]; 5.99
O=C(O)CC[C@H](NC(=O)c1ccc2c(c1)Cc1ccccc1-2)C(=O)N[C@H](CO)Cc1ccccc1; 5.57
COc1cccc(-c2ccc(C(=O)N[C@@H](CCC(=O)O)C(=O)NC(C)(C)Cc3ccccc3)cc2)c1 [Example 17I]; 6.66
O=C(O)CC[C@H](NC(=O)c1ccc(-c2ccccc2)cc1)C(=O)N[C@H](CO)Cc1ccccc1; 5.29
C[C@H](NC(=O)[C@H](CCC(=O)O)NC(=O)c1ccc(-c2ccccc2)cc1)c1ccc(F)cc1; 5.54
O=C(O)CC[C@H](NC(=O)c1ccc2c(c1)Cc1ccccc1-2)C(=O)NCc1ccccc1; 5.96

Now take the following compound into account.
Task: If you can, please state the reported pIC50 value of Cc1ccc(-c2ccc(C(=O)N[C@@H](CCC(=O)O)C(=O)NC(C)(C)Cc3ccccc3)cc2)cc1 [Example 17TT] .
Output: 6.76

Recorded values, source patent US7998965B2.
